Experiment: qHTS of pediatric cancer cell lines to identify multiple opportunities for drug repurposing: Primary screen for MG 63 (6-TG R) cells (AID 1347105); also: nearly all actives have a fitted effect of over 50% in size
Settings: MG 63 (6-TG R) viability, CellTiter-Glo, 48 h; series mostly up to 46 µM
Results filed as inconclusive are left out. Active and inactive are the calls of the source. Calls follow the shape of the dose curve; as a rule, active = well fitted cell-killing curve with a large enough effect; inconclusive = small, poorly fitted or top-dose-only effect; inactive = no such curve, though single readings can be large or run the other way.
Give one outcome, nothing more. List: Yes for active, No for inactive

Worked examples follow.
**Query** # outcome recorded in this test, key = "COc1ccc2c(OCc3nnc4ccc(-c5ccccc5)nn34)ccnc2c1"
**Result** No

**Query** # outcome recorded in this test, key = "CCC(=C(c1ccccc1)c1ccc(OCCN(C)C)cc1)c1ccccc1"
**Result** No

**Query** # outcome recorded in this test, key = "CN(C)c1nc(Cc2ccc(NC(=O)c3ccc4ccccc4c3)cc2)nc(Cl)c1CC(=O)O"
**Result** No

**Query** # outcome recorded in this test, key = "C#Cc1cccc(Nc2ncnc3cc(OC)c(OCCCCCCC(=O)NO)cc23)c1"
**Result** Yes

**Query** # outcome recorded in this test, key = "COc1cc(C(=O)NS(=O)(=O)c2ccccc2C)ccc1Cc1cn(C)c2ccc(NC(=O)OC3CCCC3)cc12"
**Result** Yes

**Query** # outcome recorded in this test, key = "Cc1cc(CN2CCN(c3c(Br)cnc4nc(-c5ccc(N6CCN(C)CC6)cc5)[nH]c34)CC2)no1"
**Result** Yes

**Query** # outcome recorded in this test, key = "Nc1nc(-c2nn(Cc3ccccc3F)c3ncccc23)nc(N)c1N1CCOCC1"
**Result** No

**Query** # outcome recorded in this test, key = "Cc1ccc(S(=O)(=O)Nc2cc(Cl)ccc2C(=O)Nc2nc(-c3ccccc3)cs2)cc1"
**Result** Yes

From here, focus on the item given below.
**Query** # outcome recorded in this test, key = "O=C(O)CCCc1c[nH]c2ccccc12"
**Result** No

====

Assay: Quantitative High-Throughput drug screen in 47 multiple myeloma cell lines against the NCATS MIPE library collection: H1112_PLB cell viability assay (AID 1918967; also: nearly all actives have a fitted effect of over 30% in size)
Conditions: H1112 myeloma cells viability, ATP luminescence, 48 h; series mostly up to 45.8 µM
Inconclusive results are not listed. Active and inactive are the calls of the source. Calls follow the shape of the dose curve; as a rule, active = well fitted cell-killing curve with a large enough effect; inconclusive = small, poorly fitted or top-dose-only effect, or effect the other way; inactive = no such curve, though single readings can be large or run the other way.
Give one outcome, nothing more. List: 1 (active), -1 (inactive)

Worked examples follow.
**Query** # outcome recorded in this test, key = "CNC(=O)c1nn(C)c2c1C(C)(C)Cc1cnc(Nc3ccc(N4CCN(C)CC4)cc3)nc1-2"
**Result** 1

**Query** # outcome recorded in this test, key = "C1Cc2[nH]nc(-c3nn[nH]n3)c2C1"
**Result** -1

---
**Query** # outcome recorded in this test, key = "CC(C)CC(=O)Nc1n[nH]c2c1CN(C(=O)C1CCN(C)CC1)C2(C)C"
**Result** 1

**Query** # outcome recorded in this test, key = "CCOc1cc2ncc(C#N)c(Nc3ccc(F)c(Cl)c3)c2cc1NC(=O)C=CCN(C)C"
**Result** 1

**Query** # outcome recorded in this test, key = "O=C(CCCCCCC(=O)Nc1ccc([C@H]2O[C@@H](CSc3nc(-c4ccccc4)c(-c4ccccc4)o3)C[C@@H](c3ccc(CO)cc3)O2)cc1)NO"
**Result** 1

**Query** # outcome recorded in this test, key = "O=C(Cc1ccc(-c2ccc(OCCN3CCOCC3)cc2)cn1)NCc1ccccc1"
**Result** 1

**Query** # outcome recorded in this test, key = "CC(C)C[C@H](NC(=O)CNC(=O)c1cc(Cl)ccc1Cl)B(O)O"
**Result** 1

**Query** # outcome recorded in this test, key = "COc1cc(C(=O)NS(=O)(=O)c2ccccc2C)ccc1Cc1cn(C)c2ccc(NC(=O)OC3CCCC3)cc12"
**Result** 1

====

Experiment: Quantitative High-Throughput drug screen in 47 multiple myeloma cell lines against the NCATS MIPE library collection: OPM2_DSMZ cell viability assay (AID 1919872); also: nearly all actives have a fitted effect of over 30% in size
Details: OPM2 myeloma viability, CellTiter-Glo ATP luminescence, 48 h; series mostly up to 45.8 µM
Inconclusive results are not listed. The source made the active and inactive calls. The call rests on the fitted dose curve; in most records, active means well fitted cell-killing curve with a large enough effect; inconclusive means small, poorly fitted or top-dose-only effect, or effect the other way; inactive means no such curve, though single readings can be large or run the other way.
Give one outcome, nothing more. List: True = active, False = inactive

Worked examples follow.
**Query** # outcome recorded in this test, key = "Cc1ccc(-c2ncn(-c3ccc(Nc4nccc(-c5cccc(N6CCOCC6)c5)n4)cc3)n2)cn1"
**Result** True

**Query** # outcome recorded in this test, key = "CCc1c2c(nc3ccc(O)cc13)-c1cc3c(c(=O)n1C2)COC(=O)[C@]3(O)CC"
**Result** True

**Query** # outcome recorded in this test, key = "C=C1C(=CC=C2CCC[C@]3(C)[C@@H]([C@H](C)C=C[C@H](C)C(C)C)CC[C@@H]23)C[C@@H](O)C[C@@H]1O"
**Result** True

---
**Query** # outcome recorded in this test, key = "CCn1nnc2c(N3CCOCC3)nc(-c3ccc(NC(=O)Nc4ccc(C(=O)N5CCN(C)CC5)cc4)cc3)nc21"
**Result** True

**Query** # outcome recorded in this test, key = "CNC(=O)c1ccc(N2C(=S)N(c3cnc(C#N)c(C(F)(F)F)c3)C(=O)C23CCC3)cc1F"
**Result** False

**Query** # outcome recorded in this test, key = "CCC1=C[C@@H]2CN(C1)Cc1c([nH]c3ccccc13)[C@@](C(=O)OC)(c1cc3c(cc1OC)N(C)[C@@H]1[C@@](O)(C(=O)OC)[C@H](OC(C)=O)[C@]4(CC)C=CCN5CC[C@]31[C@@H]54)C2"
**Result** True

**Query** # outcome recorded in this test, key = "O=C(C=Cc1c(C(=O)O)[nH]c2cc(Cl)cc(Cl)c12)Nc1ccccc1"
**Result** False

**Query** # outcome recorded in this test, key = "COC(=O)Nc1ccc(-c2nc(N3CCOCC3)c3cnn(C4CCN(Cc5cccnc5)CC4)c3n2)cc1"
**Result** True

====

// reported parasite growth, % of control (lower = inhibition) for each item listed
Experiment: qHTS profiling of the MIPE4 collection as inhibitors of Plasmodium falciparum (DD2) proliferation (Rep 2) (AID 743346)
Details: P. falciparum Dd2 in erythrocytes, SYBR Green DNA, 72 h; at 28.5 µM (top of the series) unless noted
Record the value in %, omitting the unit from your answer.

Some solved cases for reference:
**Query** I have this molecule here, "CN1CC[C@@H](c2c(O)cc(O)c3c(=O)cc(-c4ccccc4Cl)oc23)[C@@H](O)C1" , and I need its recorded parasite growth, % of control (lower = inhibition).
**Result** 9.93

**Query** I have this molecule here, "Cc1ccc(C(=O)Nc2cccc(C(F)(F)F)c2)cc1-c1ccc2nc(NCCN3CCOCC3)ncc2c1" , and I need its recorded parasite growth, % of control (lower = inhibition).
**Result** 22.9

**Query** I have this molecule here, "CC(C)(C)c1cc(C(C)(C)C)c(NC(=O)c2c[nH]c3ccccc3c2=O)cc1O" , and I need its recorded parasite growth, % of control (lower = inhibition).
**Result** 88.9

**Query** I have this molecule here, "CC(C)CC(=O)Nc1n[nH]c2c1CN(C(=O)C1CCN(C)CC1)C2(C)C" , and I need its recorded parasite growth, % of control (lower = inhibition).
**Result** 34.2

**Query** I have this molecule here, "Clc1ccc2ncc(-c3cccc(NC4CNC4)n3)n2c1" , and I need its recorded parasite growth, % of control (lower = inhibition).
**Result** 24.4

**Query** I have this molecule here, "O=C(c1cncc(Br)c1)N1CCC(N2CCCC2)CC1" , and I need its recorded parasite growth, % of control (lower = inhibition).
**Result** 80.8

---
**Query** I have this molecule here, "COc1cc(=C2C=c3ccccc3=N2)[nH]c1=Cc1[nH]c(C)cc1C" , and I need its recorded parasite growth, % of control (lower = inhibition).
**Result** 15.9

**Query** I have this molecule here, "COc1ccc(OC)c(-c2nnc3ccc(-c4ccc(OC)c(O[C@@H]5CCOC5)c4)nn23)c1" , and I need its recorded parasite growth, % of control (lower = inhibition).
**Result** 16

**Query** I have this molecule here, "CC(C)c1noc(N2CCC(COc3ccc(-c4ccc(S(C)(=O)=O)cc4)nc3)CC2)n1" , and I need its recorded parasite growth, % of control (lower = inhibition).
**Result** 49.7

**Query** I have this molecule here, "Cc1ccc(S(=O)(=O)Nc2cc(Cl)ccc2C(=O)Nc2nc(-c3ccccc3)cs2)cc1" , and I need its recorded parasite growth, % of control (lower = inhibition).
**Result** 21.2

====

// reported z-score for each item listed
Assay: qHTS for identification of novel therapeutic agents for treatment of microphthalmiaassociated transcription factor (MiT) renal cell carcinoma (RCC) (AID 1963991);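 also: curves scaled with 100% = DMSO viability and 0% = empty wells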
Settings: TFE3-RCC viability, CellTiter-Glo, 48 h; measured here: UOK145 Z-AUC; stronger effect = lower value
Records with an inconclusive call do not appear.
Give a plain numeric answer without units written out.

Some solved cases for reference:
**Query** I have this compound here, "O=C(O)CO.[NH2-].[NH2-].[Pt+2]" , and I need its recorded z-score.
**Result** 1.18

**Query** I have this compound here, O=c1[nH]c(=O)n(C2CCCO2)cc1F (stereo not given) , and I need its recorded z-score.
**Result** 0.901

**Query** I have this compound here, "CC[C@@]1(O)C(=O)OCc2c1cc1n(c2=O)Cc2cc3cc(O)ccc3nc2-1" , and I need its recorded z-score.
**Result** -2.02

**Query** I have this compound here, "CNC(=O)CN1CCC(Oc2cc3c(Nc4cccc(Cl)c4F)ncnc3cc2OC)CC1" , and I need its recorded z-score.
**Result** -1.75

---
**Query** I have this compound here, "COC(=O)C[C@](O)(CCCC(C)(C)O)C(=O)O[C@@H]1C(OC)=C[C@]23CCCN2CCc2cc4c(cc2[C@H]13)OCO4" , and I need its recorded z-score.
**Result** 0.67
